# test method notes: Phase 1 study Part 1: plasma PK and relative bioavailability of LUM-201 tablets vs capsule
# Assay type: in vivo, human
# assay conditions: human, plasma, po, 85.3 mg, Part 1, Treatment D (test): 85.3 mg capsule contents in banana puree, oral, fasted; read-out: AUC0-last, Arithmetic Mean
experimental endpoint: AUC(0-t) (µg·h/mL)
Hi! Could you send only the number? It should be in µg·h/mL, unit omitted.

Query: Look up and report measured AUC(0-t) for this entry: CC(C)(N)C(=O)N[C@H](COCc1ccccc1)C(=O)N1CCC2(CC1)CN(S(C)(=O)=O)c1ccccc12 [LUM-201]
Reply: 0.619

====

# test method notes: Phase 1 study Part 1: plasma PK and relative bioavailability of LUM-201 tablets vs capsule
# Type: in vivo, human
# assay conditions: human, plasma, po, 85.3 mg, Part 1, Treatment D (test): 85.3 mg capsule contents in banana puree, oral, fasted; read-out: AUC0-last, Geometric Mean
experimental endpoint: AUC(0-t) (ng·h/mL)
Hi! Could you send only the number? It should be in ng·h/mL, unit omitted.

Query: Look up and report measured AUC(0-t) for this entry: `CC(C)(N)C(=O)N[C@H](COCc1ccccc1)C(=O)N1CCC2(CC1)CN(S(C)(=O)=O)c1ccccc12`
Reply: 535

====

# test method notes: Phase 1 study Part 1: plasma PK and relative bioavailability of LUM-201 tablets vs capsule
# Format: in vivo, human
# assay conditions: human, plasma, po, 85.3 mg, Part 1, Treatment D (test): 85.3 mg capsule contents in banana puree, oral, fasted; read-out: t1/2, Geometric Mean (converted)
# Source text: This study in healthy adult subjects was designed to establish the pharmacokinetic (PK) and pharmacodynamic (PD) profiles for the orally administered test product (coated mini-tablets in a capsule) and reference product (mini-tablet) to evaluate relative bioavailability in Part 1 and to evaluate the food effect on the bioavailability of test product (capsule only) in Part 2. This was a single center, open-label, randomized, Phase 1 study in healthy adult subjects. […]
experimental endpoint: half-life (h)
Hi! Could you send only the number? It should be in h, unit omitted.

Query: Look up and report measured half-life for this entry: `CC(C)(N)C(=O)N[C@H](COCc1ccccc1)C(=O)N1CCC2(CC1)CN(S(C)(=O)=O)c1ccccc12`
Reply: 8.1

====

# test method notes: Phase 1 study Part 2: food effect on plasma PK of LUM-201 capsule
# Assay type: in vivo, human
# assay conditions: human, plasma, po, 85.3 mg, Part 2, Treatment B: 85.3 mg capsule, oral, 30 minutes after start of high-fat meal; read-out: AUC0-last, Geometric Mean
experimental endpoint: AUC(0-t) (ng·h/mL)
Hi! Could you send only the number? It should be in ng·h/mL, unit omitted.

Query: Look up and report measured AUC(0-t) for this entry: `CC(C)(N)C(=O)N[C@H](COCc1ccccc1)C(=O)N1CCC2(CC1)CN(S(C)(=O)=O)c1ccccc12`
Reply: 579

====

# test method notes: Phase 1 study Part 2: food effect on plasma PK of LUM-201 capsule
# Assay type: in vivo, human
# assay conditions: human, plasma, po, 85.3 mg, Part 2, Treatment B: 85.3 mg capsule, oral, 30 minutes after start of high-fat meal; read-out: tmax, Median
experimental endpoint: Tmax
Kindly format the answer as number then unit.

Query: Look up and report measured Tmax for this entry: `CC(C)(N)C(=O)N[C@H](COCc1ccccc1)C(=O)N1CCC2(CC1)CN(S(C)(=O)=O)c1ccccc12`
Reply: 1.5 h
